biological target: Human GLP-1 receptor (Homo sapiens); construct: expressed in transfected cells; test: Measurement of GLP-1 receptor agonist activity (cAMP assay); assay type: cell-based; conditions: CHO-K1, hGLP-1R/CHO-K1 cells, cAMP; 100% = human GLP-1 (7-36) at 2 nM, 0% = DMSO only; read-out: Emax(%)
ASSAY_READOUT: Emax (%)

Known Emax results, listed for orientation:
- C[C@H]1c2cc(OCc3c(F)cc(Cl)cc3F)c(C(F)(F)F)cc2CCN1Cc1nc2ccc(C(=O)O)cc2n1C[C@@H]1CCO1 [Compound I-114]: 132
- C[C@H]1c2cc(OCc3ccc(C#N)cc3F)c(C(F)(F)F)cc2CCN1Cc1nc2ccc(C(=O)O)cc2n1C[C@@H]1CCO1 [Compound I-170]: 120
- COc1ccc(COc2cc3c(cc2C(F)(F)F)CCN(Cc2nc4ccc(C(=O)O)nc4n2C[C@@H]2CCO2)[C@H]3C)cc1 [Compound I-175]: 101

A: Cc1cc2c(cc1OCc1ccc(C(F)(F)F)cc1F)CN(Cc1nc3ccc(C(=O)O)cc3n1C[C@@H]1CCO1)CC2 [Compound I-020]
B: C[C@H]1c2cc(OCc3c(F)cc(Cl)cc3F)c(C(F)(F)F)cc2CCN1Cc1nc2ccc(C(=O)O)c(F)c2n1C[C@@H]1CCO1 [Compound I-130]
Input line: Sorting by Emax in descending order, would A or B appear first? Respond using the label that marks the chosen record.
Output line: B

---

target: Human GLP-1 receptor (Homo sapiens, UniProt P43220); construct: expressed in transfected cells; assay: Measurement of GLP-1 receptor agonist activity (cAMP assay); format: cell-based; settings: CHO-K1, hGLP-1R/CHO-K1 cells, cAMP; 100% = human GLP-1 (7-36) at 2 nM, 0% = DMSO only; read-out: Emax(%)
Sequence (P43220 24-463): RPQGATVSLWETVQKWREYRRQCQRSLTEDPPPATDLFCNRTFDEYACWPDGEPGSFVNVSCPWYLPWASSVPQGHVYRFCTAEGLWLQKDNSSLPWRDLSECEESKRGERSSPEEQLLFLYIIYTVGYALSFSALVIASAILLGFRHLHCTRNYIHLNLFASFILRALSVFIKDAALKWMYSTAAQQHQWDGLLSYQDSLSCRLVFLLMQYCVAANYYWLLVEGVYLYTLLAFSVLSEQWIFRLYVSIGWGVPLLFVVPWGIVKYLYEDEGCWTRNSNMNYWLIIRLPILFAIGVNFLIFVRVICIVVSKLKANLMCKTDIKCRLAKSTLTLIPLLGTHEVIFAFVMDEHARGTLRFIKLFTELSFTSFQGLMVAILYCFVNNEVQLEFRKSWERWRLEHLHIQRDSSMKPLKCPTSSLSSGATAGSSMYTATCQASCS
ASSAY_READOUT: Emax (%)

• O=C(O)c1ccc2nc(Cc3ccc4cc(C(F)(F)F)c(OCc5ccc(Cl)cc5F)nc4c3)n(C[C@@H]3CCO3)c2c1 [Compound I-046] = 118
• Cc1cc(C(=O)O)cc2c1nc(CN1CCc3cc(C(F)(F)F)c(OCc4ccc(Cl)cc4F)cc3C1)n2C[C@@H]1CCO1 [Compound I-108] = 108
• O=C(O)c1ccc2nc(CN3CCc4cc(C(F)(F)F)c(OCc5ccc(Cl)cc5F)cc4C3=O)n(C[C@@H]3CCO3)c2n1 [Compound I-031] = 91
• O=C(O)c1ccc2nc(CN3CCc4cc(C(F)(F)F)c(OCc5ccc(Cl)cc5F)nc4C3)n(C[C@@H]3CCO3)c2c1 [Compound I-110] = 114
• N#Cc1ccc(COc2cc3c(cc2C(F)(F)F)CCN(Cc2nc4ccc(C(=O)O)cc4n2C[C@@H]2CCO2)C3)c(F)c1 [Compound I-053] = 115
• C[C@H]1c2cc(OCc3ccc(OC(F)F)cc3F)c(C(F)(F)F)cc2CCN1Cc1nc2c(F)cc(C(=O)O)cc2n1C[C@@H]1CCO1 [Compound I-212] = 104
• O=C(O)c1ccc2nc(CN3CCc4cc(C(F)(F)F)c(OCc5ccc(C(F)(F)F)cn5)cc4C3)n(C[C@@H]3CCO3)c2c1 [Compound I-135] = 91
• C[C@H]1c2cc(OCc3ccc(C4CC4)cc3)c(C(F)(F)F)cc2CCN1Cc1nc2ccc(C(=O)O)cc2n1C[C@@H]1CCO1 [Compound I-163] = 131
• C[C@H]1c2cc(OCc3cc(F)c(Cl)cc3F)c(C(F)(F)F)cc2CCN1Cc1nc2ccc(C(=O)O)cc2n1C[C@@H]1CCO1 [Compound I-169] = 101
• C[C@H]1c2cc(OCc3ccc(C4CC4)cc3)c(C(F)(F)F)cc2CCN1Cc1nc2c(F)cc(C(=O)O)cc2n1C[C@@H]1CCO1 [Compound I-207] = 90.3
• C[C@H]1c2cc(OCc3ccc(OC(F)F)cc3F)c(C(F)(F)F)cc2CCN1Cc1nc2ccc(C(=O)O)nc2n1C[C@@H]1CCO1 [Compound I-184] = 98
• Cc1csc(COc2cc3c(cc2C(F)(F)F)CCN(Cc2nc4ccc(C(=O)O)cc4n2C[C@@H]2CCO2)C3)n1 [Compound I-137] = 114
• Cc1csc(COc2cc3c(cc2C(F)(F)F)CCN(Cc2nc4c(F)cc(C(=O)O)cc4n2C[C@@H]2CCO2)[C@H]3C)n1 [Compound I-204] = 117

---

target: Human GLP-1 receptor (Homo sapiens, UniProt P43220); construct: expressed in transfected cells; test: Measurement of GLP-1 receptor agonist activity (cAMP assay); type: cell-based; conditions: cAMP increase in GLP-1 R/CHO-K1 cells; 2 nM human GLP-1 (7-36) = 100%, DMSO only = 0%
pEC50: −log10 of the molar value.
ASSAY_READOUT: pEC50

- O=C(O)c1cc(F)c2nc(CN3CCc4cc(C(F)(F)F)c(OCc5ccc(Cl)cc5)nc4C3)n(C[C@@H]3CCO3)c2c1: 9.42
- O=C(O)c1ccc2nc(CN3CCc4cc(C(F)(F)F)c(OCc5ccc(Cl)cc5Cl)nc4C3)n(C[C@@H]3CCO3)c2n1: 9.06

I: C[C@H]1c2nc(OCc3ccc(OC(F)F)cc3F)c(C(F)(F)F)cc2CCN1Cc1nc2ccc(C(=O)O)cc2n1C[C@@H]1CCO1
II: C[C@H]1c2nc(OCc3c(F)cc(Cl)cc3F)c(C(F)(F)F)cc2CCN1Cc1nc2ccc(C(=O)O)nc2n1C[C@@H]1CCO1
Input line: # returns the entry with the larger pEC50; inputs I and II Please identify the chosen entry by its label.
Output line: II
(II: 10.06, I: 9.41)

---

target: Human GLP-1 receptor (Homo sapiens); construct: expressed in transfected cells; experiment: Measurement of GLP-1 receptor agonist activity (cAMP assay); type: cell-based; conditions: hGLP-1R/CHO-K1 cells, cAMP increase, 37° C. 1 hour
ASSAY_READOUT: EC50 (nM)

* C[C@H]1c2cc(OCc3c(F)cc(Cl)cc3F)c(C(F)(F)F)cc2CCN1Cc1nc2ccc(C(=O)O)c(F)c2n1C[C@@H]1CCO1 [Compound I-130] | 0.307
* C[C@H]1c2cc(OCc3ccc(Cl)cn3)c(C(F)(F)F)cc2CCN1Cc1nc2ccc(C(=O)O)cc2n1C[C@@H]1CCO1 [Compound I-172] | 0.946

1: O=C(O)c1ccc2nc(CN3CCc4cc(C(F)(F)F)c(OCc5cc(F)c(Cl)cc5F)cc4C3)n(C[C@@H]3CCO3)c2c1 [Compound I-064]
2: Cc1cc2c(cc1OCc1ccc(Cl)cc1F)CN(Cc1nc3ncc(C(=O)O)cc3n1C[C@@H]1CCO1)CC2 [Compound I-028]
3: O=C(O)c1ccc2nc(Cc3cc(F)c4nc(C(F)(F)F)c(OCc5ccc(Cl)cc5F)nc4c3)n(C[C@@H]3CCO3)c2c1 [Compound I-127]
Input line: rank_up(items): orders items by reported EC50 in ascending numerical order. // respond by listing labels in the order requested
Output line: 3, 1, 2
(3: 1.15 nM, 1: 5.74 nM, 2: 78.6 nM)

---

biological target: Human GLP-1 receptor (Homo sapiens); construct: expressed in transfected cells; test: Measurement of GLP-1 receptor agonist activity (cAMP assay); assay type: cell-based; conditions: hGLP-1R/CHO-K1 cells, cAMP increase, 37° C. 1 hour
pEC50: −log10 of the molar value.
ASSAY_READOUT: pEC50

# example entries with known answers
- Cc1cc2c(cc1OCc1ccc(Cl)cc1F)C(=O)N(Cc1nc3ccc(C(=O)O)nc3n1C[C@@H]1CCO1)CC2: 7.15
- O=C(O)c1ccc2nc(CN3CCc4cc(C(F)(F)F)c(OCc5ccc(OC(F)(F)F)cc5)cc4C3)n(C[C@@H]3CCO3)c2c1: 7.04
- Fc1cc(Cl)ccc1COc1cc2c(cc1C(F)(F)F)CCN(Cc1nc3ccc(-c4nnn[nH]4)cc3n1C[C@@H]1CCO1)C2: 8.01
- C[C@H]1c2cc(OCc3ccc(Cl)cc3)c(C(F)(F)F)cc2CCN1Cc1nc2ccc(C(=O)O)cc2n1C[C@@H]1CCO1: 8.89
- Cc1cc2c(cc1OCc1ccc(Cl)cc1F)CN(Cc1nc3ccc(C(=O)O)nc3n1C[C@@H]1CCO1)CC2: 7.56
- O=C(O)c1ccc2nc(CN3CCc4cc(C(F)F)c(OCc5ccc(Cl)cc5F)cc4C3)n(C[C@@H]3CCO3)c2c1: 8.02

a: O=C(O)c1ccc2nc(CN3CCc4cc(C(F)(F)F)c(OCc5c(F)cc(C(F)F)cc5F)cc4C3)n(C[C@@H]3CCO3)c2c1
b: O=C(O)c1cc(OC(F)F)c2nc(CN3CCc4cc(C(F)(F)F)c(OCc5ccc(Cl)cc5F)cc4C3)n(C[C@@H]3CCO3)c2c1
c: C[C@H]1c2nc(OCc3ccc(Cl)cc3)c(C(F)(F)F)cc2CCN1Cc1nc2ccc(C(=O)O)c(F)c2n1C[C@@H]1CCO1
d: O=C(O)c1ccc2nc(CN3CCc4cc(C(F)(F)F)c(OCc5ccc(Cl)cc5F)cc4C3)n(C[C@@H]3CCCO3)c2c1
e: N#Cc1cc(Cl)ccc1COc1cc2c(cc1C(F)(F)F)CCN(Cc1nc3ccc(C(=O)O)cc3n1C[C@@H]1CCO1)C2
Input line: Order the records by pEC50, with each subsequent value no larger than the one before. List the labels, following the order given in the request.
Output line: c, b, e, a, d
